Some compounds, each annotated with its measured drug sensitivity score.
# System: Caco-2
# test_protocol: drug sensitivity score (DSS) for viability; higher = more toxic; extreme values may be limits of the assay
# condition_description: 72 h
Field format: numeric only.

Worked cases, answers included:
CC(=O)OCC1=C(C(=O)O)N2C(=O)[C@@H](NC(=O)Cc3cccs3)[C@H]2SC1 [cephalothin] : 0
O=[N+]([O-])c1cncn1CCN1CCOCC1 [nimorazole] : 0
CC(=O)Oc1ccccc1C(=O)Oc1ccccc1C(=O)O [acetylsalicylsalicylic-acid] : 0
C[C@@H]1CC(=O)NN=C1c1ccc(NN=C(C#N)C#N)cc1 [levosimendan] : 0
CC(C)(O)CS(=O)(=O)Nc1ccc2c(c1)CCN(C(=O)COc1cccnc1)C2 [Nampt-IN-1] : 20
CCOC(=O)[C@H](CCc1ccccc1)N[C@@H](C)C(=O)N(CC(=O)O)C1Cc2ccccc2C1 [delapril] : 0

# input Entry C1=Cc2cccc(OCC3CNCCO3)c2C1 (centres undefined) [indeloxazine] : reported drug sensitivity score = ?
# output 2.3

# input Query (compound): Nc1ncnc2c1ncn2[C@H]1O[C@@H](C(=O)N2CCN(CC(=O)Nc3cccc4c3CNC4=O)CC2)[C@H](O)[C@@H]1O [EB-47] ; field requested: drug sensitivity score
# output 0

# input Entry `COc1nccc(-c2c(-c3ccc(F)cc3)ncn2C2CCNCC2)n1` has what drug sensitivity score?
# output 0

---

# Test system: A549-ACE2 infected with SARS-CoV-2
# test_protocol: morphology score (similarity to uninfected cells); higher = more like uninfected cells
# condition_description: 0.3 µM; 24 h
assay_readout: morphology score
Format: numeric value only, no unit, no commentary.

C=C1C(=O)O[C@@H]2[C@H]3O[C@]3(C)CC/C=C(\C)CC[C@@H]12 [parthenolide-(alternate-stereo)] : 0.157

# input Observed morphology score on A549-ACE2 infected with SARS-CoV-2 for `COc1ccccc1C1(O)CCN(CCCn2c3ccccc3c3ccccc32)CC1` , please.
# output 0.04

# input Lab note: need morphology score for COc1cc(NC(C)CCCN)c2ncccc2c1 (stereo not drawn) on A549-ACE2 infected with SARS-CoV-2, anyone have it?
# output -0.01

# input Fill in the recorded morphology score for this compound, with A549-ACE2 infected with SARS-CoV-2 as test system: CC(C)C[C@H](NC(=O)CNC(=O)c1cc(Cl)ccc1Cl)B1OC(=O)C(CC(=O)O)(CC(=O)O)O1 [ixazomib-citrate]
# output 0.25

---

Reported cell viability values for the following compounds.
# Tested on: Calu-3
# test_protocol: cell viability relative to DMSO; higher = less toxic
# condition_description: 72 h; 10000 nM
Where a name gives a salt, the structure may show the parent alone.
Record the value in %, omitting the unit from your answer.

N[C@H](Cc1ccccc1)C(=O)O [D-phenylalanine] : 105

# input Item under review: CC1C=CC=CCCC=CC=CC=CC=CC(OC2OC(C)C(O)C(N)C2O)CC2OC(O)(CC(O)C(O)CCC(O)CC(O)CC(O)CC(=O)OC(C)C(C)C1O)CC(O)C2C(=O)O (centres undefined) [nystatin] . Reported cell viability?
# output 109

# input Value lookup for cell viability; key = `Cc1c(C2CCN(CCc3ccccc3)CC2)noc1-c1ccc(Cl)cc1`
# output 80.9

# input Requested field: cell viability. Item: C1=Cc2cccc(OCC3CNCCO3)c2C1 (centres undefined) [indeloxazine]
# output 97.8

# input Given the entry COc1cc2nc(C3CC3)nc(N3CCN(c4ccccc4OC)CC3)c2cc1OC [ML314] , report its measured cell viability.
# output 78.3

# input Find the recorded cell viability belonging to CC(=O)Nc1ccccc1 [acetanilide] and report it.
# output 99.8

# input For the compound CC(C)(C)NC[C@H](O)COc1cccc2c1CCCC2=O [levobunolol] , what cell viability is on record?
# output 104

# input Quick check: cell viability of O=C(Nc1cccc2cccnc12)c1ccc(N2C(=O)[C@@H]3[C@H](C2=O)[C@@H]2C=C[C@H]3C2)cc1 [endo-IWR-1] ?
# output 74.4

# input # query: cell viability of entry CCSC(=N)N [EIT-hydrobromide]
# output 103

These measurements were taken from the supplement of paper PMC13380429.
